- Tested on: MDA-MB-231 breast
- assay_summary: NCI-60 one-dose screen, 48 h (100 = growth as untreated, 0 = no growth, -100 = all killed)
- condition_details: 10 µM unless noted
This is part of a sample that, as a whole, favours compounds with a hit. Of some 83,000 tested, about 20% had one in any assay.
property_name: growth (%)
Give bare numbers, in %.

Field: example entries. Status: answers known.
1. CC1=CC(=Nc2ccc(N(CCCl)CCCl)cc2)C=C(C)C1=O    40.8
2. Oc1cc(Cl)ccc1Oc1ccc(Cl)cc1Cl    8.82
3. CC[C@H](C)[C@H](NC(=O)CN(C)C)C(=O)N(C)[C@H](C[C@@H](OC(C)=O)c1nc(C(=O)NC23CC(C(=O)OC)(C2)C3)cs1)C(C)C    1.51
4. C[C@]12CCc3sc(Nc4ccc(O)cc4)nc3C1=CC[C@@H]1[C@@H]2CC[C@]2(C)C(=O)CC[C@@H]12    35.3

// each molecule listed below needs its growth
1. CC(=O)OC1CC2(O)C(CCC3(C)C(c4ccc(=O)oc4)CCC32O)C2(C)CCC(OC3OC(CO)C(O)C(O)C3O)C=C12 (stereo not given)
2. CCC1(CCSC#N)C(=O)NC(=O)NC1=O
3. N#CC(C#N)=Cc1cccc(F)c1
4. O=[N+]([O-])c1ccc(P(=O)(O)O)cc1

## Result
1: -20.3; 2: 106; 3: 109; 4: 109

// each molecule listed below needs its growth
1. O=S(=O)(F)c1cccc(Cl)c1C[P+](c1ccccc1)(c1ccccc1)c1ccccc1
2. N#CCC(=O)c1ccccc1

## Result
1. 98.6
2. 104

====

Give measured growth for each item. Keep answers brief.
- Test system: HOP-62 NSCLC
- assay_summary: NCI-60 one-dose screen, 48 h (100 = growth as untreated, 0 = no growth, -100 = all killed)
- condition_details: 10 µM unless noted
About 83,000 compounds went through this panel and 20% of them were active in at least one assay; those are over-represented in the sample as a whole.
Answers are plain numbers, in %.

1) CC[C@H](CC[C@@H](C)[C@H]1CC[C@H]2[C@@H]3CC[C@H]4C[C@]5(CC[C@]4(C)[C@H]3CC[C@]12C)OO[C@](C)(C(F)(F)F)O5)C(C)C    81.7

// each molecule listed below needs its growth
1. O=C=Nc1ccc(Br)cc1
2. C#Cc1cccc(Nc2nc(Cl)nc3cc(NC(=O)CF)ccc23)c1
3. Cc1ccccc1-n1c(/C=C\c2ccccn2)nc2ccccc2c1=O
4. O=C(O)c1ccccc1N(CCO)CCCl
5. C[N+]1(CC#CC[N+]2(C)CCCC2)CCCC1
6. O=C1NC(=O)C(=C/C=C/c2ccccc2)C(=O)N1
7. O=C1c2ccccc2C(=O)N1N1CC1c1ccccc1 (configuration not stated)

## Result
1: 119; 2: 70; 3: 107; 4: 95.1; 5: 105; 6: 48.2; 7: 111

// each molecule listed below needs its growth
1. O=S(=O)(F)c1cccc(Cl)c1C[P+](c1ccccc1)(c1ccccc1)c1ccccc1
2. O=[N+]([O-])c1cc(Br)c(O)c(Br)c1
3. CCCCOCCOP(=O)(OCCOCCCC)OCCOCCCC
4. CC(=O)C(N)Cc1ccccc1 (configuration not stated)
5. O=C(O)C(O)c1ccc(Cl)cc1 (configuration not stated)
6. CC(C)CCC1C(=O)NC(=O)NC1=O
7. CC(=O)Cc1ccc2c(c1)OCO2

## Result
93.3
96.9
91.6
85.1
107
87.4
102

// each molecule listed below needs its growth
1. Cc1nnc([S-])o1.[Au+].c1ccc([PH+](c2ccccc2)c2ccccc2)cc1
2. CC[C@H](C)[C@H](NC(=O)[C@H]1CCCCN1C)C(=O)N(C)[C@H](C[C@@H](OC(C)=O)c1cccc(C(=O)N[C@@H](Cc2ccccc2)C[C@H](C)C(=O)OC)n1)C(C)C

## Result
121
3.61

// each molecule listed below needs its growth
1. O=C1C=C(N2CC2)c2ccccc2C1=O
2. O=S1(=O)OCCO1
3. O=Cc1cn(Cc2ccccc2)c2ccccc12
4. CC[C@@H](C)C(=O)O[C@H]1[C@H](O)[C@H]2[C@@H](CN3C[C@@H](C)CC[C@H]3[C@@]2(C)O)[C@@H]2C[C@]34O[C@]5(O)[C@@H](OC(=O)[C@@](C)(O)CC)CC[C@@]3(C)[C@@H]5[C@@H](OC(C)=O)[C@@H](OC(C)=O)[C@H]4[C@@]21O
5. O=C(NC1=NCC[Se]1)c1ccccc1O

## Result
1: 76; 2: 103; 3: 65.8; 4: 82.8; 5: 39

Source of measurements: PubChem BioAssay (NCI)
